Target: T1, human CCR8 (human, UniProt P51685 1-355)
T1 construct: also called hCCR8; CC chemokine receptor 8
Assay: flow cytometry, hCCR8-transfected CHO-K1 cells
Property Name: MFI fold change to isotype ctrl (fold)
Provide the reading as a plain figure in fold.

Problem: Give a short answer stating reported MFI fold change to isotype ctrl for anti-CCR8 mAb 1-1 (antibody, V domains shown, Murine hybridoma mAb) VH: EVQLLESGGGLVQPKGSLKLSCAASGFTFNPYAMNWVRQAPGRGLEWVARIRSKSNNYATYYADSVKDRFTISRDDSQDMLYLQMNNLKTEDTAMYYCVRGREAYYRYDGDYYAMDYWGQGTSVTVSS VL: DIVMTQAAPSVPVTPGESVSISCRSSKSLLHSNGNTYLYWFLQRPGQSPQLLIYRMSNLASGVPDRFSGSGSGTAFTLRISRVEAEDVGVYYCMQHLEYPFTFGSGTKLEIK .
Solution: 6.32

Problem: Give a short answer stating reported MFI fold change to isotype ctrl for anti-CCR8 mAb 1-6 (antibody, V domains shown, Murine hybridoma mAb) VH: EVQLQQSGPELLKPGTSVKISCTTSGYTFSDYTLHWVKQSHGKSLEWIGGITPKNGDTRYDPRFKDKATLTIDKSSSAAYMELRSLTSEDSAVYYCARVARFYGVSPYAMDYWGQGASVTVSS VL: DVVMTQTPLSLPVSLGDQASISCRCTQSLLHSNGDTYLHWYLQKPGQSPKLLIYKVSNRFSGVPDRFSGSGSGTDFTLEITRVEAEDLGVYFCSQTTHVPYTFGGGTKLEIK .
Solution: 10.7

Problem: Give a short answer stating reported MFI fold change to isotype ctrl for anti-CCR8 mAb 1-16 (antibody, V domains shown, Murine hybridoma mAb) VH: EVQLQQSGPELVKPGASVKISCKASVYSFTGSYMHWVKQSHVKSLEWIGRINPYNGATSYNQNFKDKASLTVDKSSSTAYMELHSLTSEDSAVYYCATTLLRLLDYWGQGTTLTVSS VL: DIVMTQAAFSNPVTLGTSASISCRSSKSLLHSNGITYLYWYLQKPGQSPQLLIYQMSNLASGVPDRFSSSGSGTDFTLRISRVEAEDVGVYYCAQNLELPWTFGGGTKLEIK .
Solution: 2.34

Problem: Give a short answer stating reported MFI fold change to isotype ctrl for anti-CCR8 mAb 1-11 (antibody, V domains shown, Murine hybridoma mAb) VH: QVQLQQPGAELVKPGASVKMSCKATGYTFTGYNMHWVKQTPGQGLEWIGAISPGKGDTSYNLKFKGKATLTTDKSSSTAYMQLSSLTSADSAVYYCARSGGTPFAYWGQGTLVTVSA VL: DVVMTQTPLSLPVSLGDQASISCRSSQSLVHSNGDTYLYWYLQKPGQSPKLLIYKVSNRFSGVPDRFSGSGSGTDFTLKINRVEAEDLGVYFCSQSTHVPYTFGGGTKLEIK .
Solution: 8.37

Problem: Give a short answer stating reported MFI fold change to isotype ctrl for anti-CCR8 mAb 1-10 (antibody, V domains shown, Murine hybridoma mAb) VH: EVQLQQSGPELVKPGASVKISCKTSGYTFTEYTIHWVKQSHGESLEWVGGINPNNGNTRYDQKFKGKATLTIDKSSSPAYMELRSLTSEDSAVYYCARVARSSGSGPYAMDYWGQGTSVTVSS VL: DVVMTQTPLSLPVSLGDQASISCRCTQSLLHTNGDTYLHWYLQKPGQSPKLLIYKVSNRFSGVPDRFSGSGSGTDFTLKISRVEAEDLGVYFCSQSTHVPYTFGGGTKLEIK .
Solution: 4.78

Values were extracted from patent US20260132208A1.
